Recorded values, source patent US20240409645A1.

Answer each item with its documented pEC50.
- ASSAYED_SYSTEM: T1, cynomolgus monkey IL-2Rβ/CD122 subunit (cynomolgus monkey, UniProt Q38J85 27-239, limits assumed)
- T1 construct: also called Cyno IL-2R subunit
- T1 sequence (looked up): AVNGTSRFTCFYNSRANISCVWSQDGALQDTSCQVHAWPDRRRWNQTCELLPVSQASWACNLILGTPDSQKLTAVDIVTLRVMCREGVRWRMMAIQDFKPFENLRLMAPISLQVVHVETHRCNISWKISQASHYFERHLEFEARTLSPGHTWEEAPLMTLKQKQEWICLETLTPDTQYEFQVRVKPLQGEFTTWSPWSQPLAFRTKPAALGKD
- TEST_SUMMARY: ELISA, bivalent VHH-hFc
Answers are plain numbers, as −log10 of the molar value.

Guide cases for pEC50, answers given:
BINDER | pEC50
16-MP02B08 VHH-hFc, monospecific bivalent (Fc fusion, IgG1 Fc LALA-PG; not shown: human IgG1 CH2 and CH3 domains (Fc)) EVQLVESGGGLVQAGGSLRLSCAASGRAIENYPVGWFRQAPGKEREFVAAITWISGSTLYADSVKGRFTISRDNAKNTVYLQMSSLKPEDTALYYCAAALKTITRGQNDYSYWGQGTQVTVSS | 9.64
115-MP02E01 VHH-hFc, monospecific bivalent (Fc fusion, IgG1 Fc LALA-PG; not shown: human IgG1 CH2 and CH3 domains (Fc)) EVQLVESGGGLVQIGGSLRLSCAASGRTFSSITMAYFRQVPGKEREWVAGINFSGTRTFYADSVKGRFLISRDDAKSTMYLQMNSLKPEDTAVYYCAASPRGFYGPGNALYDYWGQGTQVTVSS | 10.22
24-MP06E05 VHH-hFc, monospecific bivalent (Fc fusion, IgG1 Fc LALA-PG; not shown: human IgG1 CH2 and CH3 domains (Fc)) QVQLVESGGELVQGGASLRLSCAASGRTFSNANMAWFRQAPEKEREFVALITWSSGSTLYADSVKGRFTISRDNARKMVYLQMNSLKPEDTAVYYCAADGPPYSGTYYRYDTYDYWGQGTQVTVSS | 9.58

Ask: Please supply the value of reported pEC50 for the item 23-MP06F03 VHH-hFc, monospecific bivalent (Fc fusion, IgG1 Fc LALA-PG; not shown: human IgG1 CH2 and CH3 domains (Fc)) QVQLVESGGGLVQAGGSLRLSCAVSGDVFVRYTMAWFRQAPGKEREFVASVTDSGRTTDYVHSVKGRFTVSRDNAKNTVYLQMNNLKPEDTAVYYCAANTDYFQIKSLDANTWGQGTQVTVSS
Result: 9.80
